- measured.on: Homeodomain-interacting protein kinase 4 (Homo sapiens) (UniProt Q8NE63)
- Sequence (Q8NE63 whole entry): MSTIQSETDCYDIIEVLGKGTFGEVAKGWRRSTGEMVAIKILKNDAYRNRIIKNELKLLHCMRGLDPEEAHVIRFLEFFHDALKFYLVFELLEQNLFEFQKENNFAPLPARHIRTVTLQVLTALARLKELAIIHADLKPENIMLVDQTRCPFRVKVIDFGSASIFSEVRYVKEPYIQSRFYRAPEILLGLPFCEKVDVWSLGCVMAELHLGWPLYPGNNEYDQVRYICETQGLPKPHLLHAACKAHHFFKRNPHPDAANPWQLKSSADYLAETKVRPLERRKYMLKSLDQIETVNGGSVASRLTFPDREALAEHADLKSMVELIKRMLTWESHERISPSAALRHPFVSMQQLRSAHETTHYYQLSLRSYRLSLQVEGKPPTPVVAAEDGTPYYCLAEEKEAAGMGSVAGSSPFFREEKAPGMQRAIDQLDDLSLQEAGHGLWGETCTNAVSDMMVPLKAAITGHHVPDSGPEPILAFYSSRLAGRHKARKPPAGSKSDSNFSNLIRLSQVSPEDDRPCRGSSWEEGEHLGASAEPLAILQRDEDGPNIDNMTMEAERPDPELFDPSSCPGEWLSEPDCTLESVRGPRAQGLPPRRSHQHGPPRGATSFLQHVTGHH
- method.description: Inhibition of HIPK4 (unknown origin) at 0.5 uM relative to control
measured.endpoint: inhibition (%)

chemical.smiles: CNC(=O)c1cc(Oc2ccc(NC(=O)c3nc(C(F)(F)F)sc3-c3ccc(F)cc3)cc2)ccn1
quantitative.result: 95
--
chemical.smiles: CNC(=O)c1cc(Oc2ccc(NC(=O)c3nc(NC)sc3-c3ccc(F)cc3)cc2)ccn1
quantitative.result: 96
--
chemical.smiles: CNC(=O)c1cc(Oc2ccc(NC(=O)c3nc(SC)[nH]c3-c3ccc(F)cc3)cc2)ccn1
quantitative.result: 97
--
chemical.smiles: CNC(=O)c1cc(Oc2ccc(NC(=O)c3n[nH]nc3-c3ccc(F)cc3)cc2)ccn1
quantitative.result: 84
--
chemical.smiles: CNC(=O)c1cc(Oc2ccc(NC(=O)c3nc(SC)oc3-c3ccc(F)cc3)cc2F)ccn1
quantitative.result: 98
--
chemical.smiles: CSc1nc(C(=O)Nc2ccc(Oc3cc4cnn(C)c4cc3Br)cc2)c(-c2ccc(F)cc2)o1
quantitative.result: 87
--
chemical.smiles: CNC(=O)c1cc(Oc2ccc(NC(=O)c3nc(S(C)(=O)=O)sc3-c3ccc(F)cc3)cc2)ccn1
quantitative.result: 96
--
chemical.smiles: CNC(=O)c1cc(Oc2ccc(NC(=O)c3nc(SC)n(CCN(C)C)c3-c3ccc(F)cc3)cc2)ccn1
quantitative.result: 91
--
chemical.smiles: CNC(=O)c1cc(Oc2ccc(NC(=O)c3nc(SC)oc3-c3ccc(F)cc3)cc2)ccn1
quantitative.result: 99

====

- measured.on: Ephrin type-A receptor 8 (Homo sapiens) (UniProt P29322)
- Sequence (P29322 whole entry): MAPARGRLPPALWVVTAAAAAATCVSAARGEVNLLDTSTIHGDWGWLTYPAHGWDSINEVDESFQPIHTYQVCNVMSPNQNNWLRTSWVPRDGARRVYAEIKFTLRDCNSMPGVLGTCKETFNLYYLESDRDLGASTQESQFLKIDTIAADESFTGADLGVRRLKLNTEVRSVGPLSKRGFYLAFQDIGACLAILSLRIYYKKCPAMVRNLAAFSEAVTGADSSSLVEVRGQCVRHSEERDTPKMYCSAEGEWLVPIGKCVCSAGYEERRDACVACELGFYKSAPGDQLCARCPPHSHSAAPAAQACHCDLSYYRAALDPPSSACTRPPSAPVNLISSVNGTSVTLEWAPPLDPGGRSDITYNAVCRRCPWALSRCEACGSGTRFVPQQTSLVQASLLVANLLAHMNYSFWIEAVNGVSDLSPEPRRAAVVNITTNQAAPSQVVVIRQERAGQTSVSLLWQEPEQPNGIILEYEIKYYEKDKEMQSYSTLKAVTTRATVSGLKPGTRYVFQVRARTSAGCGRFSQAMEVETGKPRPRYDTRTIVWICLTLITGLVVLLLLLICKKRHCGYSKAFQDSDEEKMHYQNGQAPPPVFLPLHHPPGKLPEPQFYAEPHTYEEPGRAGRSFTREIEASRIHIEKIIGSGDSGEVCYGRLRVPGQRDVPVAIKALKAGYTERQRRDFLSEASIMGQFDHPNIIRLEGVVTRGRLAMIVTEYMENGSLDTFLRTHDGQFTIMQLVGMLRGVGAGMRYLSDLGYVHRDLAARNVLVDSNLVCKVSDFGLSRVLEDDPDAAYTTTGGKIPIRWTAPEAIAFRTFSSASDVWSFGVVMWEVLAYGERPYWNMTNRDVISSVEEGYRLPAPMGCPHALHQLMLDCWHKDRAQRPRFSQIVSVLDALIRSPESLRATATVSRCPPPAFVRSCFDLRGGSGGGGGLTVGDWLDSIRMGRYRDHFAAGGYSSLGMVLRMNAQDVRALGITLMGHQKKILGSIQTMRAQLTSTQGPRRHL
- method.description: Inhibition of EPH-A8 (unknown origin) at 0.5 uM relative to control
measured.endpoint: inhibition (%)

chemical.smiles: CNC(=O)c1cc(Oc2ccc(NC(=O)c3nc(SC)n(CCN(C)C)c3-c3ccc(F)cc3)cc2)ccn1
measured.on: Ephrin type-A receptor 8 (Homo sapiens) (UniProt P29322)
value.unit: %
inhibition: 57
--
chemical.smiles: CNC(=O)c1cc(Oc2ccc(NC(=O)c3nc(SC)oc3-c3ccc(F)cc3)cc2F)ccn1
measured.on: Ephrin type-A receptor 8 (Homo sapiens) (UniProt P29322)
value.unit: %
inhibition: 42
--
chemical.smiles: CNC(=O)c1cc(Oc2ccc(NC(=O)c3nc(C(F)(F)F)sc3-c3ccc(F)cc3)cc2)ccn1
measured.on: Ephrin type-A receptor 8 (Homo sapiens) (UniProt P29322)
value.unit: %
inhibition: 50

(I) CNC(=O)c1cc(Oc2ccc(NC(=O)c3nc(NC)sc3-c3ccc(F)cc3)cc2)ccn1
(II) CSc1nc(C(=O)Nc2ccc(Oc3cc4cnn(C)c4cc3Br)cc2)c(-c2ccc(F)cc2)o1
(III) CNC(=O)c1cc(Oc2ccc(NC(=O)c3nc(SC)[nH]c3-c3ccc(F)cc3)cc2)ccn1
Number of molecules to sort: 3. Sort criterion: inhibition, ascending. The labels, placed in the requested order, form the answer. II, I, III

====

- measured.on: Platelet-derived growth factor receptor beta (Homo sapiens) (UniProt P09619)
- Sequence (P09619 whole entry): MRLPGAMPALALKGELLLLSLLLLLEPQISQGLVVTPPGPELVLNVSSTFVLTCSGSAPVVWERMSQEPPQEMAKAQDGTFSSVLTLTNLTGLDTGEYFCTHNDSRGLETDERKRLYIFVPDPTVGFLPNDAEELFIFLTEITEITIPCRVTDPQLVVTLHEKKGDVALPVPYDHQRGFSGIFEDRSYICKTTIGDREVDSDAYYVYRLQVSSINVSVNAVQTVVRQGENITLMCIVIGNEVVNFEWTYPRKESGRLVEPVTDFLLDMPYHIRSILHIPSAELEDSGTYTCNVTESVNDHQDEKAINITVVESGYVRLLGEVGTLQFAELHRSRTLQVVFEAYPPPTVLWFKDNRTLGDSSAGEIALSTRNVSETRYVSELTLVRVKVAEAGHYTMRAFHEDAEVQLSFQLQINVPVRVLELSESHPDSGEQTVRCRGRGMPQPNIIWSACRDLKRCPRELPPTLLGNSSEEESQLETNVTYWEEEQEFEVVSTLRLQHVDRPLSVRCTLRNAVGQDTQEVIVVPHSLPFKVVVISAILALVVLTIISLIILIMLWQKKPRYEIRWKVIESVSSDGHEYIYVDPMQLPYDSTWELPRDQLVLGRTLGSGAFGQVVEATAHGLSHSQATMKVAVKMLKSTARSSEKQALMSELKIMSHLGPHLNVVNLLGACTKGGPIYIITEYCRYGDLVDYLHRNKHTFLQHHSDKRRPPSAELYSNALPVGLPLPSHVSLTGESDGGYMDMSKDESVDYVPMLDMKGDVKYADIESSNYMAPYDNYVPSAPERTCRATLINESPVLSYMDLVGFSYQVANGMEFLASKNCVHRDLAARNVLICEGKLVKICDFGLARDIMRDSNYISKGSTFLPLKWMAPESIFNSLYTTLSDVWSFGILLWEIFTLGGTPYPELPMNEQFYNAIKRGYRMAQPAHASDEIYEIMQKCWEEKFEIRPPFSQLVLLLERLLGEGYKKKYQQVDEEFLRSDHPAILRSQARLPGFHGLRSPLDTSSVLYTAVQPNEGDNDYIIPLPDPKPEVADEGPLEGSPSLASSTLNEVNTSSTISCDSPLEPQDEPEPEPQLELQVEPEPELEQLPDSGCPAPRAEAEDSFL
- method.description: Inhibition of PDGFR-beta (unknown origin) at 0.5 uM relative to control
measured.endpoint: inhibition (%)

chemical.smiles: CNC(=O)c1cc(Oc2ccc(NC(=O)c3n[nH]nc3-c3ccc(F)cc3)cc2)ccn1
inhibition [%]: 60
--
chemical.smiles: CNC(=O)c1cc(Oc2ccc(NC(=O)c3nc(SC)n(CCN(C)C)c3-c3ccc(F)cc3)cc2)ccn1
inhibition [%]: 70
--
chemical.smiles: CNC(=O)c1cc(Oc2ccc(NC(=O)c3nc(NC)sc3-c3ccc(F)cc3)cc2)ccn1
inhibition [%]: 61
--
chemical.smiles: CNC(=O)c1cc(Oc2ccc(NC(=O)c3nc(SC)oc3-c3ccc(F)cc3)cc2F)ccn1
inhibition [%]: 40
--
chemical.smiles: CNC(=O)c1cc(Oc2ccc(NC(=O)c3nc(SC)oc3-c3ccc(F)cc3)cc2)ccn1
inhibition [%]: 55
